experiment-description: Example 7 Part I: single rising oral dose pharmacokinetics of NC-758 (Table 3 tablet), plasma 3-APS by LC-MS/MS
Type: in vivo, human
run-conditions: male, human, plasma, po, 400 mg, 400 mg single oral, young (18-45 years) male, fasted; mean; read-out: AUC0-Tlast
readout: AUC(0-t) (ng·h/mL)
Note: unit ng·h/mL is implicit; provide only the numeric part.

Qu. In one line, give reported AUC(0-t) of the entry NCCCS(=O)(=O)O .
Ans. 16000

* * *

experiment-description: Example 9 Part I: single oral dose pharmacokinetics of NC-758-1 (Table 5 tablet) in healthy elderly
Assay type: in vivo
run-conditions: both sexes, human, plasma; 50 mg single oral, elderly male and female, fasted; mean
readout: AUC(0-t) (ng·h/mL)
Note: unit ng·h/mL is implicit; provide only the numeric part.

Qu. In one line, give reported AUC(0-t) of the entry NCCCS(=O)(=O)O .
Ans. 1540

* * *

experiment-description: Example 9 Part I: single oral dose pharmacokinetics of NC-758-1 (Table 5 tablet) in healthy elderly
Type: in vivo
run-conditions: both sexes, human, plasma; 100 mg single oral, elderly male and female, fasted; mean
readout: AUC(0-t) (ng·h/mL)
Note: unit ng·h/mL is implicit; provide only the numeric part.

Qu. In one line, give reported AUC(0-t) of the entry NCCCS(=O)(=O)O .
Ans. 3130

* * *

experiment-description: Example 7 Part I: single rising oral dose pharmacokinetics of NC-758 (Table 3 tablet), plasma 3-APS by LC-MS/MS
Assay type: in vivo, human
run-conditions: male, human, plasma, po, 400 mg, 400 mg single oral, young (18-45 years) male, fasted; mean
readout: Cmax (µg/mL)
Note: unit µg/mL is implicit; provide only the numeric part.

Qu. In one line, give reported Cmax of the entry NCCCS(=O)(=O)O .
Ans. 5.37

* * *

experiment-description: Example 8 Part I: multiple rising oral dose pharmacokinetics of NC-758
Assay type: in vivo
run-conditions: male, human, plasma, 100 mg, 100 mg BID, Day 12, young (18-45 years) male, fasted, mean
readout: Cmax (ng/mL)
Note: unit ng/mL is implicit; provide only the numeric part.

Qu. In one line, give reported Cmax of the entry NCCCS(=O)(=O)O [3-APS, 3-amino-1-propanesulfonic acid] .
Ans. 256

* * *

experiment-description: Example 9 Part I: single oral dose pharmacokinetics of NC-758-1 (Table 5 tablet) in healthy elderly
Type: in vivo
run-conditions: both sexes, human, plasma; 50 mg single oral, elderly male and female, fasted; mean
Description: In the following examples and elsewhere herein, terms are as defined below. […] Part I—The pharmacokinetic profile and the effect of food on single oral doses of 3-APS free acid (modified-release enteric-coated tablet as described in Table 5 above, hereinafter “NC-758-1“) in healthy male and female elderly (≧55 years) volunteers. […] Plasma concentrations of 3-APS are determined using a validated LC-MS/MS method.
readout: AUC(0-inf) (ng·h/mL)
Note: unit ng·h/mL is implicit; provide only the numeric part.

Qu. In one line, give reported AUC(0-inf) of the entry NCCCS(=O)(=O)O [3-APS, 3-amino-1-propanesulfonic acid] .
Ans. 1570

* * *

experiment-description: Example 8 Part I: multiple rising oral dose pharmacokinetics of NC-758
Type: in vivo
run-conditions: male, human, plasma, 200 mg, 200 mg BID, Day 1, young (18-45 years) male, fasted, mean, read-out: AUC0-12h
readout: AUC(0-t) (ng·h/mL)
Note: unit ng·h/mL is implicit; provide only the numeric part.

Qu. In one line, give reported AUC(0-t) of the entry NCCCS(=O)(=O)O [3-APS, 3-amino-1-propanesulfonic acid] .
Ans. 2860

* * *

experiment-description: Example 9 Part I: single oral dose pharmacokinetics of NC-758-1 (Table 5 tablet) in healthy elderly
Format: in vivo
run-conditions: both sexes, human, plasma; 50 mg single oral, elderly male and female, fasted; median
readout: Tmax (h)
Note: unit h is implicit; provide only the numeric part.

Qu. In one line, give reported Tmax of the entry NCCCS(=O)(=O)O [3-APS, 3-amino-1-propanesulfonic acid] .
Ans. 5

* * *

experiment-description: Example 8 Part I: multiple rising oral dose pharmacokinetics of NC-758
Format: in vivo
run-conditions: both sexes, human, plasma, 200 mg, 200 mg BID, Day 1, elderly (≧55 years) male and female, fasted, mean
readout: Cmax
Please make sure the unit comes right after the number.

Qu. In one line, give reported Cmax of the entry NCCCS(=O)(=O)O .
Ans. 897 ng/mL

* * *

experiment-description: Example 8 Part I: multiple rising oral dose pharmacokinetics of NC-758
Assay type: in vivo
run-conditions: both sexes, human, plasma, 200 mg, 200 mg BID, Day 12, elderly (≧55 years) male and female, fasted, mean
readout: Cmax (ng/mL)
Note: unit ng/mL is implicit; provide only the numeric part.

Qu. In one line, give reported Cmax of the entry NCCCS(=O)(=O)O [3-APS, 3-amino-1-propanesulfonic acid] .
Ans. 880

* * *

experiment-description: Example 7 Part II: food effect on single 200 mg oral dose pharmacokinetics (Table 3 formulation)
Type: in vivo, human
run-conditions: human, plasma; 200 mg single oral, young male, Fasting Arm; mean; read-out: AUC0-Tlast
readout: AUC(0-t) (ng·h/mL)
Note: unit ng·h/mL is implicit; provide only the numeric part.

Qu. In one line, give reported AUC(0-t) of the entry NCCCS(=O)(=O)O .
Ans. 2200

* * *

experiment-description: Example 7 Part I: single rising oral dose pharmacokinetics of NC-758 (Table 3 tablet), plasma 3-APS by LC-MS/MS
Assay type: in vivo, human
run-conditions: male, human, plasma, po, 300 mg, 300 mg single oral, young (18-45 years) male, fasted; mean
readout: Cmax (ng/mL)
Note: unit ng/mL is implicit; provide only the numeric part.

Qu. In one line, give reported Cmax of the entry NCCCS(=O)(=O)O .
Ans. 904

* * *

experiment-description: Example 8 Part I: multiple rising oral dose pharmacokinetics of NC-758
Assay type: in vivo
run-conditions: male, human, plasma, 200 mg, 200 mg BID, Day 12, young (18-45 years) male, fasted, median
readout: Tmax (h)
Note: unit h is implicit; provide only the numeric part.

Qu. In one line, give reported Tmax of the entry NCCCS(=O)(=O)O [3-APS, 3-amino-1-propanesulfonic acid] .
Ans. 4

* * *

experiment-description: Example 8 Part I: multiple rising oral dose pharmacokinetics of NC-758
Format: in vivo
run-conditions: human, plasma, 200 mg BID, Day 1, young (18-45 years) male, fasted, mean
readout: AUC(0-inf) (µg·h/mL)
Note: unit µg·h/mL is implicit; provide only the numeric part.

Qu. In one line, give reported AUC(0-inf) of the entry NCCCS(=O)(=O)O [3-APS, 3-amino-1-propanesulfonic acid] .
Ans. 3.21

* * *

experiment-description: Example 8 Part I: multiple rising oral dose pharmacokinetics of NC-758
Format: in vivo
run-conditions: male, human, plasma, 100 mg, 100 mg BID, Day 12, young (18-45 years) male, fasted, median
readout: Tmax

Qu. In one line, give reported Tmax of the entry NCCCS(=O)(=O)O [3-APS, 3-amino-1-propanesulfonic acid] .
Ans. 2.5 h

* * *

experiment-description: Example 7 Part I: single rising oral dose pharmacokinetics of NC-758 (Table 3 tablet), plasma 3-APS by LC-MS/MS
Assay type: in vivo, human
run-conditions: male, human, plasma, po, 100 mg, 100 mg single oral, young (18-45 years) male, fasted; mean; read-out: AUC0-Tlast
readout: AUC(0-t) (ng·h/mL)
Note: unit ng·h/mL is implicit; provide only the numeric part.

Qu. In one line, give reported AUC(0-t) of the entry NCCCS(=O)(=O)O [3-APS, 3-amino-1-propanesulfonic acid] .
Ans. 1390

* * *

experiment-description: Example 7 Part I: single rising oral dose pharmacokinetics of NC-758 (Table 3 tablet), plasma 3-APS by LC-MS/MS
Assay type: in vivo, human
run-conditions: human, plasma; 200 mg single oral, young (18-45 years) male, fasted; median
readout: Tmax (h)
Note: unit h is implicit; provide only the numeric part.

Qu. In one line, give reported Tmax of the entry NCCCS(=O)(=O)O [3-APS, 3-amino-1-propanesulfonic acid] .
Ans. 5

* * *

experiment-description: Example 7 Part I: single rising oral dose pharmacokinetics of NC-758 (Table 3 tablet), plasma 3-APS by LC-MS/MS
Format: in vivo, human
run-conditions: male, human, plasma, po, 300 mg, 300 mg single oral, young (18-45 years) male, fasted; mean; read-out: AUC0-Tlast
readout: AUC(0-t) (ng·h/mL)
Note: unit ng·h/mL is implicit; provide only the numeric part.

Qu. In one line, give reported AUC(0-t) of the entry NCCCS(=O)(=O)O .
Ans. 4000

* * *

experiment-description: Example 8 Part I: multiple rising oral dose pharmacokinetics of NC-758
Format: in vivo
run-conditions: both sexes, human, plasma, 200 mg BID, Day 1, elderly (≧55 years) male and female, fasted, mean
Protocol: In the following examples and elsewhere herein, terms are as defined below. The pharmacokinetic parameters were derived by non-compartmental analysis using WinNonlin° (Pharsight Corporation, Mountain View, Calif.) or SAS® for Windows® (SAS Institute Inc., Cary, N.C.). For doses at multiples of 100 mg, multiple 100 mg tables are administered. […] In Part I, 3-APS is administered as a single dose on Days 1 and 12 and on Days 2-11, twice daily at 12 hour intervals.
readout: AUC(0-inf) (ng·h/mL)
Note: unit ng·h/mL is implicit; provide only the numeric part.

Qu. In one line, give reported AUC(0-inf) of the entry NCCCS(=O)(=O)O .
Ans. 5500

Every entry's value here was drawn from patent US20060257480A1.
